Experiment: Antitumor activity in vivo against the 6C3HED lymphosarcoma, dosed for 8 days at 300 mg/kg
Settings: Mus musculus, 192 h
Rule: inhibition in vivo at 300 mg/kg under 10% gives false, otherwise true.

Line notation: CCc1ccc(S(=O)(=O)NC(=O)Nc2ccc(Cl)cc2)cc1CC
Group label: true
//
Line notation: Cc1ccc(S(=O)(=O)NC(=O)Nc2cccc3ccccc23)cc1
Group label: false
//
Line notation: O=C(Nc1ccc(Cl)cc1)NS(=O)(=O)c1ccc2c(c1)CCO2
Group label: true
//
Line notation: Cc1ccc(S(=O)(=O)NC(=O)Nc2ccc(OCc3ccccc3)cc2)cc1
Group label: false
//
Line notation: O=C(Nc1ccc2c(c1)OCO2)NS(=O)(=O)c1ccc(Cl)cc1
Group label: true
//
Line notation: Cc1ccc(S(=O)(=O)NC(=O)Nc2ccc(Oc3ccccc3)cc2)cc1
Group label: false
//
Line notation: O=C(NC(=O)c1ccccc1)Nc1ccc(Cl)cc1
Group label: false
//
Line notation: Cc1ccc(S(=O)(=O)NC(=O)NCCc2ccccc2)cc1
Group label: true
//
Line notation: Cc1ccc(S(=O)(=O)NC(=O)Nc2ccc(-c3ccccc3)cc2)cc1
Group label: false
//
Line notation: Cc1ccc(NC(=O)NS(=O)(=O)c2ccc(C)cc2)cc1
Group label: true
//
Line notation: O=C(Nc1ccc(Cl)cc1)NS(=O)(=O)c1ccc2c(c1)OCCO2
Group label: true
//
Line notation: Cc1ccc(S(=O)(=O)NC(=O)Nc2ccc3c(c2)OCO3)cc1
Group label: true
//
Line notation: Cc1ccc(S(=O)(=O)NC(=O)Nc2cc(Cl)c(Cl)cc2C)cc1
Group label: true
//
Line notation: O=C(Nc1ccc(Cl)cc1)NS(=O)(=O)c1ccc(Oc2ccccc2)cc1
Group label: true
//
Line notation: O=C(Nc1ccc(Cl)c(Cl)c1)NS(=O)(=O)c1ccc2c(c1)CCC2
Group label: true
//
Line notation: CCc1cccc(NC(=O)NS(=O)(=O)c2ccc(C)cc2)c1
Group label: false
//
Line notation: Cc1ccc(S(=O)(=O)NC(=O)Nc2ccc([N+](=O)[O-])cc2)cc1
Group label: true
//
Line notation: Cc1ccc(S(=O)(=O)NC(=O)Nc2cc(C)cc(C)c2)cc1
Group label: false
//
Line notation: Cc1ccc(S(=O)(=O)NC(=O)Nc2ccncc2)cc1
Group label: true
//
Line notation: O=C(Nc1ccc(Cl)cc1)NS(=O)(=O)c1ccc2c(c1)OCO2
Group label: true
//
Line notation: O=C(Nc1ccc(Cl)cc1)NS(=O)(=O)c1ccc2c(c1)CCCC2
Group label: true
//
Line notation: Cc1ccc(S(=O)(=O)NC(=O)Nc2ccccn2)cc1
Group label: false
